B1: HEEH_KT_rd6_3632 (parent)
chain: DAEELIELVERALKEGREIILLGVRITSEEAGKWFIEWIRRFL

Variants of: B1
assay protocol: folding stability dG (cDNA display proteolysis); higher = more stable
measurement setup: PBS, room temperature
assay readout: folding stability dG (kJ/mol)
One number for each entry, in kJ/mol.

1) R40S :: 13.7
2) V24Y :: 14.8
3) A2I :: 17.6

Quick one: give me folding stability dG for each item below, same order please.
1. A31Q
2. E30T
3. I39D
4. R40P
5. R11I
6. G16P
7. S28Y
8. E30P

stdout:
1. 16.7
2. 14.9
3. 10.5
4. 11.2
5. 15.1
6. 13.6
7. 14.5
8. 14.8

Quick one: give me folding stability dG for each item below, same order please.
1. R25E
2. L13I
3. G23T

stdout:
[13.7, 16.2, 15.2]
